ASSAYED TARGET: CGG-CC1 (human, UniProt Q13586 233-343)
Sequence (Q13586 233-343): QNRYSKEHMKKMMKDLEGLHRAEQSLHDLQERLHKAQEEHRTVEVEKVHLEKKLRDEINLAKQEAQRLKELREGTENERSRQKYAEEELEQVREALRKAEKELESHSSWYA
ASSAY EXPLANATION: SPR
PARAMETER MEASURED: Kd (µM)
Please reply with the bare figure in µM and do not write the unit itself.

Item: STIMATE-CT (analyte of the SPR) (domain or fragment) DNFLMRKGKTKAKLEERGANQDSRNGSKVRYRRAASHEESESEILISADDEMEESDVEEDLRRLTPLKPVKKKKHRFGLPV | Kd: 8.9
